# test-description: Thermo-Gravimetric Analysis (TGA), thermal stability
# Format: physicochemical
# assay-setup: 10° C./min ramp, nitrogen
Where a name gives a salt, the structure may show the parent alone.

{"molecule": "COc1ccc2[nH]cc(CCN(C)C)c2c1.O=C(O)c1ccccc1 [benzoate salt pattern 2, 5-MeO-DMT benzoate]", "thermally stable up to (TGA)": "~ 170 °C"}
{"molecule": "COc1ccc2[nH]cc(CCN(C)C)c2c1.Cl [hydrochloride salt, 5-MeO-DMT hydrochloride]", "thermally stable up to (TGA)": "~ 235 °C"}
{"molecule": "COc1ccc2[nH]cc(CCN(C)C)c2c1.O=C(O)CC(O)C(=O)O [Malate salt, 5-MeO-DMT malate]", "thermally stable up to (TGA)": "around 170 °C"}
{"molecule": "COc1ccc2[nH]cc(CCN(C)C)c2c1 [Tartrate salt, 5-MeO-DMT tartrate]", "thermally stable up to (TGA)": "around 170 °C"}
{"molecule": "COc1ccc2[nH]cc(CCN(C)C)c2c1.O=C(O)c1ccccc1 [benzoate salt pattern 4, 5-MeO-DMT benzoate]", "thermally stable up to (TGA)": "~ 190 °C"}
